The values you see were collected from patent US6670446B1.

System: Staphylococcus aureus SA1199
ASSAY_PROCEDURE: MIC, standard broth micro-dilution assay, SA 1199
Assay type: cell-based
MEASURED_PROPERTY: minimal inhibitory concentration (MIC), SA 1199
Answers are plain numbers.

{"columns": ["COMPOUND", "REPORTED_MEASUREMENT"],
 "data": [
  ["CC(C)C(C(=O)NC1C(=O)NC(CC(N)=O)C(=O)NC2C(=O)NC3C(=O)NC(C(=O)NC(C(=O)O)c4cc(O)cc(O)c4-c4cc3ccc4O)C(OC3CC(C)(N)C(O)C(C)O3)c3ccc(c(Cl)c3)Oc3cc2cc(c3OC2OC(CO)C(O)C(O)C2OC2CC(C)(N)C(O)C(C)O2)Oc2ccc(cc2Cl)C1O)N(C)C(=O)OC(C)(C)C (centres unmarked) [Example 41]", 16]
]}

Shifting focus to the compound that follows.
// compound CC1OC(OC2C(Oc3c4cc5cc3Oc3ccc(cc3Cl)[C@@H](O)[C@@H](NC(=O)CCCCCCCc3ccccc3)C(=O)N[C@@H](CC(N)=O)C(=O)N[C@H]5C(=O)N[C@H]3C(=O)NC(C(=O)N[C@H](C(=O)O)c5cc(O)cc(O)c5-c5cc3ccc5O)[C@H](OC3CC(C)(N)C(O)C(C)O3)c3ccc(c(Cl)c3)O4)OC(CO)C(O)C2O)CC(C)(N)C1O (some centres unmarked) [Example 2] , assay Staphylococcus aureus SA1199, minimal inhibitory concentration (MIC), SA 1199 value: 0.125
